- Target desc: Aurora kinase A (Homo sapiens, UniProt O14965)
- Sequence (O14965 whole entry): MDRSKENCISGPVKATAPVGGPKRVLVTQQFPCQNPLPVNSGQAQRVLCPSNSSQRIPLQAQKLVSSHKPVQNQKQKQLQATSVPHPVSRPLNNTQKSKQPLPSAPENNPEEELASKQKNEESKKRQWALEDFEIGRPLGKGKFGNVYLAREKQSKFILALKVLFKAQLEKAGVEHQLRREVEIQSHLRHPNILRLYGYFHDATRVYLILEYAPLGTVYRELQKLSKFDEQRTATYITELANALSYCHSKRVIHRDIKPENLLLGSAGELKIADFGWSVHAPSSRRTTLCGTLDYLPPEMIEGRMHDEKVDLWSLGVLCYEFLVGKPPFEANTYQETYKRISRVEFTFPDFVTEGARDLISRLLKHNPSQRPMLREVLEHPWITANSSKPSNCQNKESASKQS
- Assay protocol: Induction of degradation of AURORA-A in human MV4-11 cells
Assay readout: EC50 (nM)
Respond with the bare value in nM.

-- ask Looking for the measured EC50 of COc1cc(Nc2ncc3c(n2)-c2ccc(Cl)cc2C(c2c(F)cccc2OC)=NC3)ccc1C(=O)NCCOCCOCCNC(=O)COc1cccc2c1C(=O)N(C1CCC(=O)NC1=O)C2=O (stereo unspecified) , can you help?
-- reply 28
